Tested on: P388
assay_comment: Activity against P-388 murine leukemia cells expressed as median survival time (MST treated/MST control) at a dose of 12.8 mg/kg per inj.
Type: functional, Mus musculus
MST values, listed per item

Per the records, this compound ( CO[C@@]12C(COC(N)=O)C3=C(C(=O)C(C)=C(NCCc4ccccn4)C3=O)N1CC1NC12 (stereo partly specified) ) has MST equal to 256

Per the records, this compound ( CO[C@@]12[C@H](COC(N)=O)C3=C(C(=O)C(C)=C(NCCN4CCNCC4)C3=O)N1C[C@@H]1N[C@@H]12.Cl.Cl.[Zn+2] ) has MST equal to 90

Per the records, this compound ( CO[C@@]12[C@H](COC(N)=O)C3=C(C(=O)C(C)=C(NCCc4ccccn4)C3=O)N1C[C@@H]1N[C@@H]12.Cl.Cl.[Zn+2] ) has MST equal to 156

Per the records, this compound ( COC1c2c(COC(N)=O)c3c(n2CC1N)C(=O)C(C)=C(N)C3=O.Cl (stereo unspecified) ) has MST equal to 115

Per the records, this compound ( COC1c2c(COC(=N)[O-])c3c(n2CC1N)C(=O)C(C)=C(N)C3=O.Cl.[Zn+] (stereo unspecified) ) has MST equal to 144

Per the records, this compound ( CO[C@@]12C(COC(N)=O)C3=C(C(=O)C(C)=C(NCCN4CCNCC4)C3=O)N1CC1NC12 (stereo partly specified) ) has MST equal to 125

----------
Activity values, listed per item
System: P388
assay_comment: Activity against P-388 murine leukemia cells expressed as average weight change at a dose of 12.8 mg/kg per inj.
Format: functional, Mus musculus

>  <compound>
CO[C@@]12[C@H](COC(N)=O)C3=C(C(=O)C(C)=C(NCCN4CCNCC4)C3=O)N1C[C@@H]1N[C@@H]12.Cl.Cl.[Zn+2]

>  <result>
1.2 g

$$$$

# lookup: CO[C@@]12[C@H](COC(N)=O)C3=C(C(=O)C(C)=C(NCCc4ccccn4)C3=O)N1C[C@@H]1N[C@@H]12.Cl.Cl.[Zn+2] on P388, Activity = -0.4 g

# lookup: CO[C@@]12C(COC(N)=O)C3=C(C(=O)C(C)=C(NCCN4CCNCC4)C3=O)N1CC1NC12 (stereo partly specified) on P388, Activity = 1.2 g

----------
System: P388
assay_comment: Activity against P-388 murine leukemia cells expressed as average weight change at a dose of 25.6 mg/kg per inj.
Assay type: functional, Mus musculus
Classify: met when Activity is strictly less than -1 g; not met when Activity is not.

>  <compound>
CO[C@@]12[C@H](COC(N)=O)C3=C(C(=O)C(C)=C(NCCN4CCNCC4)C3=O)N1C[C@@H]1N[C@@H]12.Cl.Cl.[Zn+2]

>  <label_class>
not met

$$$$
>  <compound>
COC1c2c(COC(N)=O)c3c(n2CC1N)C(=O)C(C)=C(N)C3=O.Cl (stereo unspecified)

>  <label_class>
not met

$$$$
>  <compound>
CO[C@@]12C(COC(N)=O)C3=C(C(=O)C(C)=C(NCCc4ccccn4)C3=O)N1CC1NC12 (stereo partly specified)

>  <label_class>
met

$$$$
>  <compound>
CO[C@@]12C(COC(N)=O)C3=C(C(=O)C(C)=C(NCCN4CCNCC4)C3=O)N1CC1NC12 (stereo partly specified)

>  <label_class>
not met

$$$$
>  <compound>
COC1c2c(COC(=N)[O-])c3c(n2CC1N)C(=O)C(C)=C(N)C3=O.Cl.[Zn+] (stereo unspecified)

>  <label_class>
not met

$$$$

# input for lookup
Exercise: Identify whether the compound CO[C@@]12[C@H](COC(N)=O)C3=C(C(=O)C(C)=C(NCCc4ccccn4)C3=O)N1C[C@@H]1N[C@@H]12.Cl.Cl.[Zn+2] records Activity below -1 g.
Solution: met

----------
Tested on: P388
assay_comment: Activity against P-388 murine leukemia cells expressed as average weight change at a dose of 12.8 mg/kg per inj.
Assay type: functional, Mus musculus
Activity values, listed per item
Expressed in g, but write only the number.

>  <compound>
COC1c2c(COC(N)=O)c3c(n2CC1N)C(=O)C(C)=C(N)C3=O.Cl (stereo not drawn)

>  <Activity [g]>
0.4

$$$$
>  <compound>
CO[C@@]12C(COC(N)=O)C3=C(C(=O)C(C)=C(NCCc4ccccn4)C3=O)N1CC1NC12 (stereo partly drawn)

>  <Activity [g]>
-1.8

$$$$

API: the following record is the query input.
Per the records, this compound ( COC1c2c(COC(=N)[O-])c3c(n2CC1N)C(=O)C(C)=C(N)C3=O.Cl.[Zn+] (stereo not drawn) ) has Activity equal to 0.4
